These entries and their values trace back to ChEMBL document CHEMBL3046396.

system: Mythimna separata; experiment: Larvicidal activity against fourth-instar larval stage of Mythimna separata (Oriental armyworm) in compound-pretreated corn leaves assessed as mortality at 10 mg/l after 4 days; type: functional
For each record, write down the corresponding mortality at 10 µg/mL.
Number in %, nothing else.

Asked: Query for Mythimna separata: what mortality at 10 µg/mL does the record show for `Cc1cc(C)cc(C(=O)NN(C(=O)c2cc(C)cc(C)c2)C(C)(C)C)c1` ?
Given back: 10

Asked: Query for Mythimna separata: what mortality at 10 µg/mL does the record show for `COc1ccccc1C(=O)N(NC(=O)c1ccccc1)C(C)(C)C` ?
Given back: 10

Asked: Query for Mythimna separata: what mortality at 10 µg/mL does the record show for `Cc1cc(C)cc(C(=O)N(NC(=O)c2ccccc2)C(C)(C)C)c1` ?
Given back: 10

Asked: Query for Mythimna separata: what mortality at 10 µg/mL does the record show for `CC(C)(C)N(NC(=O)c1ccccc1)C(=O)c1cccc(Cl)c1` ?
Given back: 0

Asked: Query for Mythimna separata: what mortality at 10 µg/mL does the record show for `Cc1cc(C)cc(C(=O)N(SN2CCN(Cc3ccc(Cl)nc3)/C2=N/[N+](=O)[O-])N(C(=O)c2cc(C)cc(C)c2)C(C)(C)C)c1` ?
Given back: 0

###

tested on: Mythimna separata; assay: Larvicidal activity against fourth-instar larval stage of Mythimna separata (Oriental armyworm) in compound-pretreated corn leaves assessed as mortality at 10 mg/l after 4 days; type: functional
For each record, write down the corresponding mortality at 10 µg/mL.
Number in %, nothing else.

Asked: I would be grateful if you could share the reported mortality at 10 µg/mL for `CC(C)(C)N(NC(=O)c1ccccc1)C(=O)c1ccccc1Cl` .
Given back: 75

Asked: I would be grateful if you could share the reported mortality at 10 µg/mL for CCc1ccc(C(=O)NN(C(=O)c2cc(C)cc(C)c2)C(C)(C)C)cc1 [TEBUFENOZIDE] .
Given back: 100

Asked: I would be grateful if you could share the reported mortality at 10 µg/mL for `CC(C)(C)N(C(=O)c1ccccc1Cl)N(SN1CCN(Cc2ccc(Cl)nc2)/C1=N/[N+](=O)[O-])C(=O)c1ccccc1` .
Given back: 0

Asked: I would be grateful if you could share the reported mortality at 10 µg/mL for `O=[N+]([O-])/N=C1\NCCN1Cc1ccc(Cl)nc1` .
Given back: 10

Asked: I would be grateful if you could share the reported mortality at 10 µg/mL for `CC(C)(C)N(NC(=O)c1ccccc1)C(=O)c1ccc(Cl)cc1` .
Given back: 25

Asked: I would be grateful if you could share the reported mortality at 10 µg/mL for `CCc1ccc(C(=O)N(SN2CCN(Cc3ccc(Cl)nc3)/C2=N/[N+](=O)[O-])N(C(=O)c2cc(C)cc(C)c2)C(C)(C)C)cc1` .
Given back: 90

Asked: I would be grateful if you could share the reported mortality at 10 µg/mL for `CC(C)(C)N(NC(=O)c1ccccc1)C(=O)c1ccccc1` .
Given back: 0

###

system: Mythimna separata; assay: Larvicidal activity against fourth-instar larval stage of Mythimna separata (Oriental armyworm) in compound-pretreated corn leaves assessed as mortality at 50 mg/l after 4 days; assay type: functional
For each record, write down the corresponding mortality at 50 µg/mL.
Number in %, nothing else.

Asked: I would be grateful if you could share the reported mortality at 50 µg/mL for `COc1ccccc1C(=O)N(N(SN1CCN(Cc2ccc(Cl)nc2)/C1=N/[N+](=O)[O-])C(=O)c1ccccc1)C(C)(C)C` .
Given back: 0

Asked: I would be grateful if you could share the reported mortality at 50 µg/mL for CC(C)(C)N(NC(=O)c1ccccc1)C(=O)c1ccccc1 [RH-5849] .
Given back: 100

Asked: I would be grateful if you could share the reported mortality at 50 µg/mL for O=[N+]([O-])/N=C1\NCCN1Cc1ccc(Cl)nc1 [IMIDACLOPRID] .
Given back: 30

Asked: I would be grateful if you could share the reported mortality at 50 µg/mL for `CC(C)(C)N(NC(=O)c1ccccc1)C(=O)c1ccccc1Cl` .
Given back: 100

Asked: I would be grateful if you could share the reported mortality at 50 µg/mL for `Cc1cc(C)cc(C(=O)N(NC(=O)c2ccccc2)C(C)(C)C)c1` .
Given back: 100

Asked: I would be grateful if you could share the reported mortality at 50 µg/mL for `CC(C)(C)N(NC(=O)c1ccccc1)C(=O)c1ccc(Cl)cc1` .
Given back: 100

Asked: I would be grateful if you could share the reported mortality at 50 µg/mL for `COc1ccc(C(=O)NN(C(=O)c2ccc(OC)cc2)C(C)(C)C)cc1` .
Given back: 0

Asked: I would be grateful if you could share the reported mortality at 50 µg/mL for `Cc1cc(C)cc(C(=O)N(SN2CCN(Cc3ccc(Cl)nc3)/C2=N/[N+](=O)[O-])N(C(=O)c2cc(C)cc(C)c2)C(C)(C)C)c1` .
Given back: 25

Asked: I would be grateful if you could share the reported mortality at 50 µg/mL for `COc1ccccc1C(=O)N(NC(=O)c1ccccc1)C(C)(C)C` .
Given back: 100

Asked: I would be grateful if you could share the reported mortality at 50 µg/mL for `CC(C)(C)N(C(=O)c1ccc(Cl)cc1)N(SN1CCN(Cc2ccc(Cl)nc2)/C1=N/[N+](=O)[O-])C(=O)c1ccccc1` .
Given back: 40

Asked: I would be grateful if you could share the reported mortality at 50 µg/mL for `COc1ccc(C(=O)N(SN2CCN(Cc3ccc(Cl)nc3)/C2=N/[N+](=O)[O-])N(C(=O)c2ccc(OC)cc2)C(C)(C)C)cc1` .
Given back: 0

Asked: I would be grateful if you could share the reported mortality at 50 µg/mL for `CC(C)(C)N(C(=O)c1ccccc1Cl)N(SN1CCN(Cc2ccc(Cl)nc2)/C1=N/[N+](=O)[O-])C(=O)c1ccccc1` .
Given back: 30

Asked: I would be grateful if you could share the reported mortality at 50 µg/mL for `CC(C)(C)N(NC(=O)c1ccccc1)C(=O)c1cccc(Cl)c1` .
Given back: 95

Asked: I would be grateful if you could share the reported mortality at 50 µg/mL for `COc1ccc(C(=O)N(N(SN2CCN(Cc3ccc(Cl)nc3)/C2=N/[N+](=O)[O-])C(=O)c2ccccc2)C(C)(C)C)cc1` .
Given back: 0

Asked: I would be grateful if you could share the reported mortality at 50 µg/mL for `COc1ccccc1C(=O)N(SN1CCN(Cc2ccc(Cl)nc2)/C1=N/[N+](=O)[O-])N(C(=O)c1ccccc1OC)C(C)(C)C` .
Given back: 10

###

tested on: Mythimna separata; experiment: Larvicidal activity against fourth-instar larval stage of Mythimna separata (Oriental armyworm) in compound-pretreated corn leaves assessed as mortality at 50 mg/l after 4 days; type: functional
For each record, write down the corresponding mortality at 50 µg/mL.
Reply with the number, then its unit.

Asked: I would be grateful if you could share the reported mortality at 50 µg/mL for `CC(C)(C)N(C(=O)c1cccc(Cl)c1)N(SN1CCN(Cc2ccc(Cl)nc2)/C1=N/[N+](=O)[O-])C(=O)c1ccccc1` .
Given back: 25%

Asked: I would be grateful if you could share the reported mortality at 50 µg/mL for `Cc1cc(C)cc(C(=O)N(N(SN2CCN(Cc3ccc(Cl)nc3)/C2=N/[N+](=O)[O-])C(=O)c2ccccc2)C(C)(C)C)c1` .
Given back: 10%

Asked: I would be grateful if you could share the reported mortality at 50 µg/mL for `Cc1cc(C)cc(C(=O)NN(C(=O)c2cc(C)cc(C)c2)C(C)(C)C)c1` .
Given back: 95%

Asked: I would be grateful if you could share the reported mortality at 50 µg/mL for `CCc1ccc(C(=O)N(SN2CCN(Cc3ccc(Cl)nc3)/C2=N/[N+](=O)[O-])N(C(=O)c2cc(C)cc(C)c2)C(C)(C)C)cc1` .
Given back: 100%
